system: IMR-90 cells; test: Cell toxicity screen of synthetic lethal miRNAs in non-cancer cells; conditions: IMR-90, miRNA + low dose IC30 doxorubicin
The entries below are paired with their reported cell viability in non-cancer cells, DXR (% of control).

Examples with their reported cell viability in non-cancer cells, DXR (% of control) follow.
hsa-miR-380-3p (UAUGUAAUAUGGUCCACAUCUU; chemistry not given here; listed as Homo sapiens) :: 96 % of control
hsa-miR-485-3p (guide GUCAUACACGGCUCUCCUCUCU; chemistry not given here; listed as Homo sapiens) :: 76 % of control
hsa-miR-1321 (CAGGGAGGUGAAUGUGAU; chemistry not given here; listed as Homo sapiens) :: 23 % of control
hsa-miR-99b-5p (guide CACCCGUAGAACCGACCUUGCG; chemistry not given here; listed as Homo sapiens) :: 72 % of control
hsa-miR-34a-5p (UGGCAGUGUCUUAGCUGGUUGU; chemistry not given here; listed as Homo sapiens) :: 53 % of control

Read the next record carefully.
Find the measured cell viability in non-cancer cells, DXR (% of control): item hsa-miR-515-3p (guide GAGUGCCUUCUUUUGGAGCGUU; chemistry not given here; listed as Homo sapiens) , target or system IMR-90 cells. 50 % of control

---

test system: KELLY cells; experiment: Secondary validation screen of synthetic lethal miRNAs with low dose IC30 chemotherapy, cell viability; assay type: cell-based; settings: miRNA mimic + low dose IC30 doxorubicin
PARAMETER_MEASURED: Secondary screen Viability (% of control) Kelly DXR

Solved entries (count: 5):
hsa-miR-100-5p (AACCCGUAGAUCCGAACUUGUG; chemistry not given here; listed as Homo sapiens) :: 43 % of control
hsa-miR-3646 (AAAAUGAAAUGAGCCCAGCCCA; chemistry not given here; listed as Homo sapiens) :: 45 % of control
hsa-miR-485-3p (guide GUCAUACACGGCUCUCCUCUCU; chemistry not given here; listed as Homo sapiens) :: 47 % of control
hsa-miR-34a-5p (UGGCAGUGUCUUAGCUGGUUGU; chemistry not given here; listed as Homo sapiens) :: 98 % of control
hsa-miR-515-3p (guide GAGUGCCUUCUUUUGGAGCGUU; chemistry not given here; listed as Homo sapiens) :: 42 % of control

Next substance, Secondary screen Viability (% of control) Kelly DXR to be filled in.
Under KELLY cells: Secondary screen Viability (% of control) Kelly DXR value of hsa-miR-449a (guide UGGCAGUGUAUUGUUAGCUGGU; chemistry not given here; listed as Homo sapiens) ? 83 % of control

---

Parameter Additional cell line Viability (% of control) SKNDZ: see the listing below.
tested on: SK-N-DZ MYCN-amplified neuroblastoma cell line; test: Secondary validation screen of lethal miRNAs, additional cell line, cell viability; assay type: cell-based; settings: miRNA mimic alone

Worked cases, Additional cell line Viability (% of control) SKNDZ given:
hsa-miR-101-3p (UACAGUACUGUGAUAACUGAA; chemistry not given here; listed as Homo sapiens) :: 72 % of control
hsa-miR-491-3p (guide CUUAUGCAAGAUUCCCUUCUAC; chemistry not given here; listed as Homo sapiens) :: 47 % of control
hsa-miR-542-3p (guide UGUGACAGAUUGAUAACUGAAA; chemistry not given here; listed as Homo sapiens) :: 28 % of control
hsa-miR-892b (guide CACUGGCUCCUUUCUGGGUAGA; chemistry not given here; listed as Homo sapiens) :: 54 % of control
hsa-miR-552 (guide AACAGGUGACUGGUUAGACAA; chemistry not given here; listed as Homo sapiens) :: 36 % of control

The record that follows has no Additional cell line Viability (% of control) SKNDZ shown yet.
Form field: reported Additional cell line Viability (% of control) SKNDZ of hsa-miR-192-3p (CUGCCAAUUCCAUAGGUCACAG; chemistry not given here; listed as Homo sapiens) 97 % of control
